- measured on: Human M4 (Homo sapiens)
- Construct: Human or rat M4 cDNA, along with the chimeric G protein Gqi5, were transfected into Chinese hamster ovary (CHO-K1) cells; expressed in transfected cells; host or cells: CHO-K1 (Chinese hamster ovary, ATCC), stably co-expressing Gqi5
- Sequence (P08173 whole entry): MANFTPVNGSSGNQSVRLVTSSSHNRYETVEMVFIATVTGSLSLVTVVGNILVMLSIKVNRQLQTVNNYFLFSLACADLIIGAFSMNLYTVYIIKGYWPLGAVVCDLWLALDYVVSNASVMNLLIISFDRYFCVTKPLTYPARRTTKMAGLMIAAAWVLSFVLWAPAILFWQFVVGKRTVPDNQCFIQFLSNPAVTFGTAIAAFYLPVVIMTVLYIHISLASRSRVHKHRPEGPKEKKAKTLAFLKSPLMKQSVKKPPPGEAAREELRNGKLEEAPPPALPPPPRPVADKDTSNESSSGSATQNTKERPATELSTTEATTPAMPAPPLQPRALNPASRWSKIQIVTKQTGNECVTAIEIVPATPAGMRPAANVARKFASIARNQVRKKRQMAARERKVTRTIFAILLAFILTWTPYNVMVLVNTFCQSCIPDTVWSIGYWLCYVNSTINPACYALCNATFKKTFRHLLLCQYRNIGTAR
- test summary: mAChR M4 cell-based functional assay (calcium flux, decrease of EC80 acetylcholine response)
- cond: % ACh maximum at 30 μM; read-out: Human M4 Emin
measured quantity: remaining activity at 30 µM (%)
Numeric only. Scale: %

Cn1cnc2ccc(-c3cc(C(F)(F)F)c(N[C@H]4C[C@@H]5CN(CC6CCOCC6)C[C@@H]5C4)nn3)cc21 [Example 76]; 3
[2H][C@@]1(Nc2nnc(-c3ccc4nn(C)cc4c3)cc2C(F)(F)F)C[C@H]2CN(CC3CCOCC3)C[C@H]2C1 [Example 128]; 3
Cc1cc(F)ccc1-c1cc(C(F)(F)F)c(N[C@H]2C[C@@H]3CN(CC4CCOCC4)C[C@@H]3C2)nn1 [Example 74]; 3
N#Cc1c(F)ccc(-c2cc(C(F)(F)F)c(N[C@H]3C[C@@H]4CN(CC5CCOCC5)C[C@@H]4C3)nn2)c1F [Example 55]; 4
COc1ccc(F)c(-c2cc(C(F)(F)F)c(N[C@H]3C[C@@H]4CN(CC5CCOCC5)C[C@@H]4C3)nn2)c1 [Example 57]; 3

Task: So what's the measured remaining activity at 30 µM for this one? COc1ccc(F)cc1-c1cc(C(F)(F)F)c(N[C@H]2C[C@@H]3CN(CC4CCOCC4)C[C@@H]3C2)nn1 [Example 49]
Output: 3

Task: So what's the measured remaining activity at 30 µM for this one? O=C1Cc2cc(-c3cc(C(F)(F)F)c(N[C@H]4C[C@@H]5CN(CC6CCOCC6)C[C@@H]5C4)nn3)ccc2N1 [Example 63]
Output: 3

Task: So what's the measured remaining activity at 30 µM for this one? [2H][C@@]1(Oc2nnc(-c3cc(F)ccc3C)cc2C(F)(F)F)C[C@H]2CN(Cc3ccccn3)C[C@H]2C1 [Example 134]
Output: 6

Task: So what's the measured remaining activity at 30 µM for this one? Cc1c(-c2cc(C(F)(F)F)c(N[C@H]3C[C@@H]4CN(CC5CCOCC5)C[C@@H]4C3)nn2)ccc2nn(C)cc12 [Example 39]
Output: 2

Task: So what's the measured remaining activity at 30 µM for this one? N#Cc1ccc(F)c(-c2cc(C(F)(F)F)c(N[C@H]3C[C@@H]4CN(CC5CCOCC5)C[C@@H]4C3)nn2)c1 [Example 54]
Output: 4

###

- measured on: Human M4 (Homo sapiens)
- Construct: Human or rat M4 cDNA, along with the chimeric G protein Gqi5, were transfected into Chinese hamster ovary (CHO-K1) cells; expressed in transfected cells; host or cells: CHO-K1 (Chinese hamster ovary, ATCC), stably co-expressing Gqi5
- test summary: mAChR M4 cell-based functional assay (calcium flux, decrease of EC80 acetylcholine response)
- cond: % ACh maximum at 30 μM; read-out: Human M4 Emin
measured quantity: remaining activity at 30 µM

Known remaining activity at 30 µM results, listed for orientation:
Cn1cc2cc(-c3cc(C#N)c(N[C@H]4C[C@@H]5CN(C[C@@H]6COCCO6)C[C@@H]5C4)nn3)ccc2n1; 5%
[2H]C([2H])([C@@H]1CCOC1)N1C[C@H]2C[C@H](Nc3nnc(-c4cc(C)ccc4C)cc3C(F)(F)F)C[C@H]2C1; 3%
N#Cc1cc(-c2cc(F)ccc2Cl)nnc1N[C@H]1C[C@@H]2CN(CC3CCOCC3)C[C@@H]2C1; 3%
COc1ccccc1-c1cc(C(F)(F)F)c(N[C@H]2C[C@@H]3CN(CC4CCOCC4)C[C@@H]3C2)nn1; 3%
[2H]C([2H])(C1CCOCC1)N1C[C@H]2C[C@H](Nc3nnc(-c4cc(F)ccc4F)cc3C(F)(F)F)C[C@H]2C1; 3%
[2H]C([2H])(C1CCOCC1)N1C[C@H]2C[C@H](Nc3nnc(-c4ccccc4OC)cc3C(F)(F)F)C[C@H]2C1; 3%

Task: So what's the measured remaining activity at 30 µM for this one? Cc1ccc(F)cc1-c1cc(C(F)(F)F)c(N[C@H]2C[C@@H]3CN(CC4CCOCC4)C[C@@H]3C2)nn1
Output: 4%

Task: So what's the measured remaining activity at 30 µM for this one? Cn1ncc2cc(-c3cc(C(F)(F)F)c(N[C@H]4C[C@@H]5CN(CC6CCOCC6)C[C@@H]5C4)nn3)ccc21
Output: 3%

Task: So what's the measured remaining activity at 30 µM for this one? Cc1ccc(F)cc1-c1cc(C(F)(F)F)c(N[C@H]2C[C@@H]3CN(CC4COCC4C)C[C@@H]3C2)nn1 (stereo partly shown)
Output: 5%

Task: So what's the measured remaining activity at 30 µM for this one? [2H]C([2H])(C1CCOCC1)N1C[C@H]2C[C@H](Nc3nnc(-c4cc(F)ccc4Cl)cc3C(F)(F)F)C[C@H]2C1
Output: 3%

Task: So what's the measured remaining activity at 30 µM for this one? FC(F)(F)c1ccccc1-c1cc(C(F)(F)F)c(N[C@H]2C[C@@H]3CN(CC4CCOCC4)C[C@@H]3C2)nn1
Output: 3%
